Target: MTHFD2 recombinant human enzyme (Homo sapiens)
Sequence (P13995 36-350): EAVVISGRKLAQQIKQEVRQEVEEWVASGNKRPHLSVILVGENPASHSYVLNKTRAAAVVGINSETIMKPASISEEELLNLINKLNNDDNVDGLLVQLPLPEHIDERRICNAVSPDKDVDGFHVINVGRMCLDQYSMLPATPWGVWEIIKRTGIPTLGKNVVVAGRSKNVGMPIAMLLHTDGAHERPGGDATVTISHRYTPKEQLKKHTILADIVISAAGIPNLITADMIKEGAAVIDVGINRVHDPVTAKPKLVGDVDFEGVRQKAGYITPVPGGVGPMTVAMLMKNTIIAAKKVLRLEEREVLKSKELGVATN
Test: MTHFD2 inhibition assay (NAD(P)H-Glo luminescence)
assay metric: IC50

Recorded IC50, per entry:
{"columns": ["cpd smiles", "IC50"],
 "data": [
  ["COC[C@H]1CN(c2cc(C)c3c4c(c(=O)oc3c2C)CN(C(=O)c2cc(N(C)C)c(C(=O)NS(=O)(=O)N3CCC[C@H](OC)C3)cc2F)CC4)CCN1C", "10 to 100 nM"],
  ["COC[C@H]1CN(c2cc(C)c3c4c(c(=O)oc3c2C)CN(C(=O)c2ccc(C(=O)NS(=O)(=O)N3C5CCC3CC5)c(C)c2F)CC4)CCN1C", "10 to 100 nM"],
  ["COC[C@H]1CN(c2ccc3c4c(c(=O)oc3c2C)CN(C(=O)c2cc(F)c(C(=O)NS(=O)(=O)N(C)C)c(N3C5CCC3CC5)c2)CC4)CCN1C", "1 to 10 nM"]
]}

Request the reported IC50 associated with COC[C@H]1CN(c2cc(C)c3c4c(c(=O)oc3c2C)CN(C(=O)c2cc(N(C)C)c(C(=O)NS(=O)(=O)N3CCC[C@H]3COC)cc2F)CC4)CCN1C 1 to 10 nM

I'd like to know its IC50. The compound in question is COC[C@H]1CN(c2ccc3c4c(c(=O)oc3c2C)CN(C(=O)c2ccc(C(=O)NS(=O)(=O)N3C5CCC3CC5)c(OC3CCC3)c2F)CC4)CCN1C 10 to 100 nM

Given the compound COC[C@H]1CN(c2cc(Cl)c3c4c(c(=O)oc3c2C)CN(C(=O)c2ccc(C(=O)NS(=O)(=O)N3C5CCC3CC5)c(OC)c2)CC4)CCN1C , what is its reported IC50? 10 to 100 nM

The values you see were collected from patent US12662489B2.
